- target: Serine/threonine-protein kinase B-raf (Homo sapiens, UniProt P15056, V600E)
- Sequence (P15056 2-766 V600E limits assumed): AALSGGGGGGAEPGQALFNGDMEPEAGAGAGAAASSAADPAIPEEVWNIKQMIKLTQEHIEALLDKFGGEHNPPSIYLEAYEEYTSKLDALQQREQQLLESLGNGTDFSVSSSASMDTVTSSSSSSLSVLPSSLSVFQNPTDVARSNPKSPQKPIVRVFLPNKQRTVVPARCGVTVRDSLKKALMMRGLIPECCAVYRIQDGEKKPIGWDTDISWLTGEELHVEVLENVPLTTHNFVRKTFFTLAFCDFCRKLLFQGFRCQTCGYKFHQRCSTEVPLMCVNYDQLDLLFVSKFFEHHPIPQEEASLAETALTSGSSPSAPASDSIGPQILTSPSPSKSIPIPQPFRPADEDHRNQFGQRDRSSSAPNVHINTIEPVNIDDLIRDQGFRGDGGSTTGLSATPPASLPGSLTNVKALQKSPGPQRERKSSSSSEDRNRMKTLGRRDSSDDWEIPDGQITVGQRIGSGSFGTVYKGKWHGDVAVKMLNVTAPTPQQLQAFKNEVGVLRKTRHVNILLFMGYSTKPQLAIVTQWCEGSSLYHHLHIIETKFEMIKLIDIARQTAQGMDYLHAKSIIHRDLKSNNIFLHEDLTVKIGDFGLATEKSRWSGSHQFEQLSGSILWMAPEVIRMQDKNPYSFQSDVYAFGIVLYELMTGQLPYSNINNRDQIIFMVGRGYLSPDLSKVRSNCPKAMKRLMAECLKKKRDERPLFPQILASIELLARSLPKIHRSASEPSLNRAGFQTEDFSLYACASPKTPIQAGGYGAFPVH
- test description: Inhibition of BRAF V600E mutant-dependent MEK phosphorylation in A375 cells
Catalogue of compounds with associated IC50
parameter measured: IC50 (µM)

smi=COc1cc2ncnc(Oc3cccc(NC(=O)Nc4ccc(Cl)cc4)c3)c2cc1OC target="Serine/threonine-protein kinase B-raf (Homo sapiens, UniProt P15056, V600E)" parameter_measured=IC50 test_result=1.85
smi=COc1cc2ncnc(Oc3cccc(NC(=O)Nc4cc(C(C)(C)C)on4)c3)c2cc1OCCCN1CCOCC1 target="Serine/threonine-protein kinase B-raf (Homo sapiens, UniProt P15056, V600E)" parameter_measured=IC50 test_result=0.036
smi=COc1cc2ncnc(Oc3ccc(F)c(NC(=O)Nc4cc(C(C)(C)C)on4)c3)c2cc1OC target="Serine/threonine-protein kinase B-raf (Homo sapiens, UniProt P15056, V600E)" parameter_measured=IC50 test_result=0.113
smi=COc1cc2ncnc(Oc3cccc(NC(=O)Nc4ccc(C(C)(C)C)cc4)c3)c2cc1OC target="Serine/threonine-protein kinase B-raf (Homo sapiens, UniProt P15056, V600E)" parameter_measured=IC50 test_result=0.29
smi=COc1cc2ncnc(Oc3ccc(Cl)c(NC(=O)Nc4cc(C(C)(C)C)on4)c3)c2cc1OC target="Serine/threonine-protein kinase B-raf (Homo sapiens, UniProt P15056, V600E)" parameter_measured=IC50 test_result=0.229
smi=COc1cc2ncnc(Oc3cccc(NC(=O)Nc4cccc(C(C)(C)C)c4)c3)c2cc1OC target="Serine/threonine-protein kinase B-raf (Homo sapiens, UniProt P15056, V600E)" parameter_measured=IC50 test_result=0.333
smi=CCOc1cc2c(Oc3cccc(NC(=O)Nc4cc(C(C)(C)C)on4)c3)ncnc2cc1OC target="Serine/threonine-protein kinase B-raf (Homo sapiens, UniProt P15056, V600E)" parameter_measured=IC50 test_result=0.08
smi=COc1cc2ncnc(Oc3cccc(NC(=O)Nc4cccc(C(F)(F)F)c4)c3)c2cc1OC target="Serine/threonine-protein kinase B-raf (Homo sapiens, UniProt P15056, V600E)" parameter_measured=IC50 test_result=1.66
smi=CCOc1cc2ncnc(Oc3cccc(NC(=O)Nc4cc(C(C)(C)C)on4)c3)c2cc1OC target="Serine/threonine-protein kinase B-raf (Homo sapiens, UniProt P15056, V600E)" parameter_measured=IC50 test_result=0.173

====

Measured log10(IC50) values are reported for all entries that follow.
- target: Serine/threonine-protein kinase B-raf (Homo sapiens, UniProt P15056, V600E)
- test description: Inhibition of BRAF V600E mutant-dependent MEK phosphorylation in A375 cells
- Assay type: cell-based, A-375
parameter measured: log10(IC50) (log10 of the value in nM)

smi=COc1cc2c(Oc3cccc(NC(=O)Nc4cc(C(C)(C)C)on4)c3)ncnc2cc1O parameter_measured=log10(IC50) test_result=2.04
smi=COc1cc2ncnc(Nc3cccc(NC(=O)Nc4cc(C(C)(C)C)on4)c3)c2cc1OC parameter_measured=log10(IC50) test_result=1.91
smi=COc1cc2ncnc(Oc3cc(NC(=O)Nc4cc(C(C)(C)C)on4)c(F)cc3F)c2cc1OC parameter_measured=log10(IC50) test_result=2.05
smi=COc1cc2c(Oc3cccc(NC(=O)Nc4cc(C(C)(C)C)on4)c3)ncnc2cc1OCCN1CCOCC1 parameter_measured=log10(IC50) test_result=2.22
smi=COc1cccc(NC(=O)Nc2cccc(Oc3ncnc4cc(OC)c(OC)cc34)c2)c1 parameter_measured=log10(IC50) test_result=4.00

====

- target: Serine/threonine-protein kinase B-raf (Homo sapiens, UniProt P15056, V600E)
- test description: Inhibition of BRAF V600E mutant-dependent MEK phosphorylation in A375 cells
pIC50: −log10 of the molar value.
Would you mind labelling by pIC50? At or over 7 is true (1), under is false (0).

smi=COc1cc2ncnc(Oc3cccc(NC(=O)Nc4ccc(Cl)c(C(F)(F)F)c4)c3)c2cc1OC class_name="false (0)"
smi=COc1cc2ncnc(Oc3cccc(NC(=O)Nc4cc(C(C)(C)C)on4)c3C)c2cc1OC class_name="false (0)"
smi=COc1cc2ncnc(Oc3cccc(NC(=O)Nc4cc(C(C)(C)C)on4)c3)c2cc1OCCN1CCOCC1 class_name="true (1)"
smi=COc1cc2ncnc(Oc3cccc(NC(=O)Nc4cc(C(C)(C)C)on4)c3)c2cc1OCCN1CCCCC1 class_name="false (0)"
smi=COCCOc1cc2c(Oc3cccc(NC(=O)Nc4cc(C(C)(C)C)on4)c3)ncnc2cc1OC class_name="true (1)"

====

- test description: AUC in mouse plasma at 100 mg/kg, po
- Type: ADME, organism-based
- Parameters: dose 100 mg/kg, route oral
parameter measured: AUC (µM·h)

smi=COc1cc2c(Oc3cccc(NC(=O)Nc4cc(C(C)(C)C)on4)c3)ncnc2cc1OCCN1CCOCC1 parameter_measured=AUC unit_annotation=µM·h test_result=48

====

Each item that follows carries a reported AUC.
- test description: AUC in mouse plasma at 30 mg/kg, po
- Assay type: ADME, organism-based
- Set-up: dose 30 mg/kg, route oral
parameter measured: AUC (µM·h)

smi=COc1cc2ncnc(Sc3cccc(NC(=O)Nc4cc(C(C)(C)C)on4)c3)c2cc1OC parameter_measured=AUC test_result=22
smi=COc1cc2ncnc(Oc3cccc(NC(=O)Nc4cc(C(C)(C)C)on4)c3)c2cc1OC.Cl parameter_measured=AUC test_result=12.5

====

- target: Serine/threonine-protein kinase B-raf (Homo sapiens, UniProt P15056, V600E)
- test description: Binding affinity to BRAF V600E mutant
# note: exactly 50 nM is not below, so it is 0.0; use 1.0 for Kd strictly under it

smi=COc1cc2ncnc(Oc3ccc(Cl)c(NC(=O)Nc4cc(C(C)(C)C)on4)c3)c2cc1OC class_name=0.0
smi=COc1cc2ncnc(Oc3cccc(NC(=O)Nc4cc(C(C)(C)C)on4)c3)c2cc1OC class_name=0.0
smi=CCOc1cc2c(Oc3cccc(NC(=O)Nc4cc(C(C)(C)C)on4)c3)ncnc2cc1OC class_name=0.0
smi=COc1cc2c(Oc3cccc(NC(=O)Nc4cc(C(C)(C)C)on4)c3)ncnc2cc1O class_name=0.0
smi=COc1cc2c(Oc3cccc(NC(=O)Nc4cc(C(C)(C)C)on4)c3)ncnc2cc1OCCN1CCOCC1 class_name=1.0
smi=COc1cc2ncnc(Oc3cc(NC(=O)Nc4cc(C(C)(C)C)on4)c(F)cc3F)c2cc1OC class_name=1.0
smi=COc1cc2ncnc(Oc3cccc(NC(=O)Nc4ccc(Cl)cc4)c3)c2cc1OC class_name=1.0
smi=COc1cc2ncnc(Oc3cccc(NC(=O)Nc4cc(C(C)(C)C)on4)c3)c2cc1OCCN1CCCCC1 class_name=0.0
smi=COc1cc2ncnc(Sc3cccc(NC(=O)Nc4cc(C(C)(C)C)on4)c3)c2cc1OC class_name=0.0
smi=COc1cc2ncnc(Nc3ccc(NC(=O)Nc4cc(C(C)(C)C)on4)cc3)c2cc1OC class_name=0.0
smi=COc1cc2ncnc(Oc3ccc(F)c(NC(=O)Nc4cc(C(C)(C)C)on4)c3)c2cc1OC class_name=0.0
smi=COc1cc2ncnc(Oc3cccc(NC(=O)Nc4cc(C(C)(C)C)on4)c3C)c2cc1OC class_name=1.0
smi=COCCOc1cc2c(Oc3cccc(NC(=O)Nc4cc(C(C)(C)C)on4)c3)ncnc2cc1OC class_name=1.0
smi=COc1cc2c(Oc3cccc(NC(=O)Nc4cc(C(C)(C)C)on4)c3)ncnc2cc1OCCCN1CCOCC1 class_name=0.0
smi=COCCOc1cc2ncnc(Oc3cccc(NC(=O)Nc4cc(C(C)(C)C)on4)c3)c2cc1OC class_name=0.0
smi=COc1cc2ncnc(Oc3cccc(NC(=O)Nc4cccc(C(C)(C)C)c4)c3)c2cc1OC class_name=1.0
smi=CCOc1cc2ncnc(Oc3cccc(NC(=O)Nc4cc(C(C)(C)C)on4)c3)c2cc1OC class_name=0.0
smi=COc1cc2ncnc(Oc3cccc(NC(=O)Nc4cccc(C(F)(F)F)c4)c3)c2cc1OC class_name=1.0
smi=COc1cc2ncnc(Oc3cccc(NC(=O)Nc4cc(C(C)(C)C)on4)c3)c2cc1O class_name=1.0

====

Below is a list of entries, each paired with its recorded bioavailability value.
- test description: Oral bioavailability in rat
- Format: ADME, organism-based
- run parameters: in vivo
parameter measured: bioavailability

smi=COc1cc2c(Oc3cccc(NC(=O)Nc4cc(C(C)(C)C)on4)c3)ncnc2cc1O parameter_measured=bioavailability test_result="< 1%"
smi=COc1cc2ncnc(Sc3cccc(NC(=O)Nc4cc(C(C)(C)C)on4)c3)c2cc1OC.Cl parameter_measured=bioavailability test_result=24%
smi=COc1cc2ncnc(Oc3cccc(NC(=O)Nc4cc(C(C)(C)C)on4)c3)c2cc1OCCCN1CCOCC1.Cl parameter_measured=bioavailability test_result=20%
smi=COc1cc2ncnc(Oc3cc(NC(=O)Nc4cc(C(C)(C)C)on4)ccc3F)c2cc1OC.Cl parameter_measured=bioavailability test_result=22%
smi=CCOc1cc2c(Oc3cccc(NC(=O)Nc4cc(C(C)(C)C)on4)c3)ncnc2cc1OC.Cl parameter_measured=bioavailability test_result=30%
smi=COc1cc2c(Oc3cccc(NC(=O)Nc4cc(C(C)(C)C)on4)c3)ncnc2cc1OCCCN1CCOCC1 parameter_measured=bioavailability test_result=18%
smi=COCCOc1cc2c(Oc3cccc(NC(=O)Nc4cc(C(C)(C)C)on4)c3)ncnc2cc1OC.Cl parameter_measured=bioavailability test_result=13%
smi=COc1cc2ncnc(Nc3cccc(NC(=O)Nc4cc(C(C)(C)C)on4)c3)c2cc1OC.Cl parameter_measured=bioavailability test_result=1.9%
smi=COc1cc2ncnc(Oc3cccc(NC(=O)Nc4cc(C(C)(C)C)on4)c3)c2cc1OCCN1CCOCC1 parameter_measured=bioavailability test_result=11%
